# Measurement Protocol: Cell Proliferation Assay against the HBL1 Cell Line (AID 651646);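 note: cells exposed to compound for 48 h before reading; 100% = DMSO and 0% = 9.2 µM bortezomib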
# Applied Conditions: HBL1 DLBCL cells; at 46.1 µM (top of the series) unless noted
Please respond with reported viability, percent of control for every item in the list.
Report as a plain number; the unit % is understood.

Asked: Note viability, percent of control for the compound shown: CC[C@@H](C)[C@H](NC(=O)[C@H](CC1CCCCC1)NC(=O)c1ccno1)C(=O)N1CCC2(CCc3ccccc32)CC1
Given back: 65.5

Asked: Note viability, percent of control for the compound shown: COc1cc(Nc2ncc3c(n2)-c2ccc(Cl)cc2C(c2c(F)cccc2OC)=NC3)ccc1C(=O)O
Given back: 53

Asked: Note viability, percent of control for the compound shown: CNC(=O)c1ccc(C)c(-n2c(C)cc(OCc3ccc(F)cc3F)c(Br)c2=O)c1
Given back: 44.5

Asked: Note viability, percent of control for the compound shown: CCOc1cc(C(=O)Nc2ccc(Cl)c(-c3nc4ccccc4[nH]3)c2)cc(OCC)c1OCC
Given back: 85.2

Asked: Note viability, percent of control for the compound shown: CCCCCCCc1ccc(CCc2cccc(O)c2C(=O)O)cc1
Given back: 51.5

Asked: Note viability, percent of control for the compound shown: CC1(C)CNc2cc(NC(=O)c3cccnc3NCc3ccncc3)ccc21
Given back: 86

Asked: Note viability, percent of control for the compound shown: Cc1cc(-c2ccc(CC(=O)Nc3ccc(-c4cccnc4)cc3)cc2)ccn1
Given back: 101

Asked: Note viability, percent of control for the compound shown: COc1ccc(-c2oc3cc(OC)ccc3c2C(=O)c2ccc(C#N)cc2)cc1
Given back: 76

Asked: Note viability, percent of control for the compound shown: C[C@]12CCC(=O)C=C1CC[C@@H]1[C@@H]2[C@@H](O)C[C@@]2(C)[C@H]1CC[C@]2(O)C(=O)CO
Given back: 39.1

Asked: Note viability, percent of control for the compound shown: CCC(C)n1ncn(-c2ccc(N3CCN(c4ccc(OC[C@H]5CO[C@](Cn6cncn6)(c6ccc(Cl)cc6Cl)O5)cc4)CC3)cc2)c1=O (some centres undefined)
Given back: 77

Asked: Note viability, percent of control for the compound shown: O=c1[nH]c(-c2ccc(C(F)(F)F)cc2)nc2c1CSCC2
Given back: 105

Asked: Note viability, percent of control for the compound shown: CS(=O)(=O)Oc1ccc2c(NC(N)=O)c(C(=O)c3ccc(Cl)cc3Cl)oc2c1
Given back: 78.9

Asked: Note viability, percent of control for the compound shown: O=S(=O)(N=Cc1c(O)ccc2ccccc12)c1cccs1
Given back: 72.6

Asked: Note viability, percent of control for the compound shown: Cc1ccc(NC(=O)c2cccc(C(C)(C)C#N)c2)cc1Nc1ccc2ncn(C)c(=O)c2c1
Given back: 41.4

Asked: Note viability, percent of control for the compound shown: O=C(Nc1cccnc1)N1CCC(Cc2cccc(Oc3ccc(C(F)(F)F)cn3)c2)CC1
Given back: 46.1

Asked: Note viability, percent of control for the compound shown: CCc1cc(Nc2nccc(-c3c(-c4ccc(OC)c(C(=O)Nc5c(F)cccc5F)c4)nc4ccccn34)n2)c(OC)cc1N1CCC(N2CCN(S(C)(=O)=O)CC2)CC1
Given back: 87.3

Asked: Note viability, percent of control for the compound shown: O=c1ncn2nc(Sc3ccc(F)cc3F)ccc2c1-c1c(Cl)cccc1Cl
Given back: 62.3

Asked: Note viability, percent of control for the compound shown: Cn1cnc2c(F)c(Nc3ccc(Br)cc3Cl)c(C(=O)NOCCO)cc21
Given back: 76.1

Asked: Note viability, percent of control for the compound shown: COc1ccc2nc(S(=O)Cc3ncc(C)c(OC)c3C)[nH]c2c1 (centres undefined)
Given back: 89.4
